Each entry below lists one item and its recorded IC50 value.
Tested on: A549 cells
Assay: Cell viability (CellTiter-Glo ATP content) in A549 cells
Type: cell-based
Conditions: Homo sapiens, A549, 72 h, 72 hours treatment, cell survival by CellTiter-Glo, 2% fetal bovine serum

MOLECULE	SYSTEM	IC50
CC1(C(=O)NCC(=O)N2CCS(=O)(=O)CC2)C(c2cccs2)C(c2ccc(F)cc2)=NN1c1ccc(F)cc1F (stereo not shown) [Compound 105]	A549 cells	> 2 µM
CCCCC1C(c2ccc(F)cc2)=NN(c2ccccc2)C1(C)C(=O)NCC1CCCCC1 (stereo not shown) [Compound 51]	A549 cells	> 2 µM
CC1(C(=O)NCCNC(=O)CCCCC2SC[C@@H]3NC(=O)N[C@H]23)C(c2cccs2)C(c2ccc(F)cc2)=NN1c1ccc(F)cc1F (stereo partly shown) [Compound 125]	A549 cells	> 2 µM
CCCCC1C(c2ccc(F)cc2)=NN(c2ccc(F)cc2F)C1(C)C(=O)NCCC(=O)OC (stereo not shown) [Compound 31]	A549 cells	1 to 2 µM
CCCCC1C(c2ccc(F)cc2)=NN(c2ccccc2)C1(C)C(=O)NCCCCC(C)(C)O (stereo not shown) [Compound 2]	A549 cells	1 to 2 µM
CCCCC1C(c2ccc(F)cc2)=NN(c2ccccc2)C1(C)C(=O)NCCCN1CCOCC1 (stereo not shown) [Compound 65]	A549 cells	> 2 µM
COCCNC(=O)C1(C)C(c2ccoc2)C(c2ccc(F)cc2F)=NN1c1ccc(F)cc1F (stereo not shown) [Compound 130]	A549 cells	> 2 µM
